Test system: NCI-H226
assay comment: NCI tumour cell line growth inhibition, 48 h
Active and inactive are the calls of the source. No stated cut-off is given here; in the data, active = GI50 up to about 1.1 µM and inactive = higher.
Write down one outcome, taken from True (active), False (inactive)

The examples below pair each entry with its known result.
compound	category label
COc1ccc(-c2nc(O)c3ccccc3n2)cc1	False
COC(=O)/C([Se]c1c(C)cc(C)cc1C)=C(/[Se]c1c(C)cc(C)cc1C)C(=O)OC	False

Kindly review the next compound as well.
**Q:** Can you look up the reported call for CO[C@@H]1C[C@H](OC(N)=O)[C@@H]2C=C[C@@H]3/C=C(C)/C=C/[C@@H](C)[C@H](/C(C)=C/[C@@H](C)NC(C)=O)OC(=O)/C=C/C=C(C)\C=C\[C@]3(C)[C@@H]2C1 [SUPERSTOLIDE B] for me?
**A:** True

###

Test system: NCI-H522
assay comment: NCI tumour cell line growth inhibition, 48 h
Activity calls are given as the source filed them. No stated cut-off is given here; in the data, active = GI50 up to about 1.1 µM and inactive = higher.
outcome measure: GI50

Example entries and their recorded answers appear below.
compound	result
Cc1cc(NS(=O)(=O)c2ccc(NC(=O)c3cccc4cc5ccccc5nc34)cc2)no1	15.5 µM (inactive)
C/N=C(\SC)N(C)c1nc(=[N+](C)C)ss1.[O-][Cl+3]([O-])([O-])[O-]	13.2 µM (inactive)
CCC1CC(=O)N(SCC(N)C(=O)O)C1=O (configuration not stated)	> 100 µM (inactive)
C=C1CCCC2OC(OC)CCC12 (configuration not stated)	> 100 µM (inactive)
Cc1oc2nc(N(C)C)nc(Cl)c2c1C	> 100 µM (inactive)
COc1cc(OC)cc(-c2cc(=O)c3c(OC)c(OC)c(OC)c(OC)c3o2)c1	21.2 µM (inactive)
Ic1cc2c(cc1C1SCCCS1)OCO2	> 100 µM (inactive)
c1ccc2c(c1)N=C(c1ccc3ccccc3c1)CC(c1cccc3ccccc13)S2 (configuration not stated)	24.3 µM (inactive)
COc1ccc(OC)c(NCC#N)c1	> 100 µM (inactive)
Cn1c(=O)nc2n(-c3ccc(Br)cc3)c3ccccc3nc-2c1=O	4.39 µM (inactive)

# evaluate next
**Q:** Find the recorded GI50 belonging to C(=N\OCc1ccccc1)/c1ncccc1C1OCCO1 and report it.
**A:** > 100 µM (inactive)

###

Test system: M14
assay comment: NCI tumour cell line growth inhibition, 48 h
Calls of active or inactive are those of the source. Cut-off read from the data, not from the text of the source: active = GI50 up to about 1.1 µM and inactive = higher.
Write down one outcome, taken from 1 = active, 0 = inactive

The examples below pair each entry with its known result.
compound	measured target	category label
Cn1c(=O)nc2n(-c3ccc(Br)cc3)c3ccccc3nc-2c1=O	M14	0
CC1CN=C(N(C)C(=O)Nc2ccc(Cl)cc2)S1 (stereo unspecified)	M14	0
C/C1=C/C(=O)O[C@@H]2C[C@@H](CC[C@H](C)/C=C\C=C\CC1)O[C@@](O)([C@@H]1CSC(=O)N1)C2	M14	1
COC(=O)/C([Se]c1c(C)cc(C)cc1C)=C(/[Se]c1c(C)cc(C)cc1C)C(=O)OC	M14	0

**Q:** Can you look up the reported call for CCOC(=O)NNC(=O)NCc1cccc(CNC(=O)NNC(=O)OCC)c1 for me?
**A:** 0

**Q:** Can you look up the reported call for Brc1ccc(/N=N/N2CCCCC2)cc1 for me?
**A:** 0

**Q:** Can you look up the reported call for O=C1CCCCc2cccc(O)c21 for me?
**A:** 0

**Q:** Can you look up the reported call for CCSc1nc(C)nc2c1sc1nc3ccccc3n12 for me?
**A:** 0

**Q:** Can you look up the reported call for COC(c1cccc(C(O)(C(F)(F)F)C(F)(F)F)c1)(C(F)(F)F)C(F)(F)F for me?
**A:** 0

**Q:** Can you look up the reported call for CC1(C)S[C@@H]2[C@H](NC(=O)C3(N)CCCCC3)C(=O)N2[C@H]1C(=O)O for me?
**A:** 0

**Q:** Can you look up the reported call for C=C(C(=C)P(=S)(c1ccccc1)c1ccccc1)P(=S)(c1ccccc1)c1ccccc1 for me?
**A:** 0

**Q:** Can you look up the reported call for CC(=O)c1ccc(NC(=O)C(=O)C(C#N)CC(C)(C)C=O)cc1 (stereo unspecified) for me?
**A:** 0

**Q:** Can you look up the reported call for C=C1CC2(C[C@@H](c3ccccc3)O[C@@H](c3ccccc3)C2)OC1=O (stereo partly specified) for me?
**A:** 0

**Q:** Can you look up the reported call for CCOC(=O)c1ccc(/N=C2\SC(=S)N(c3ccc(F)cc3)\C2=N/c2ccc(C(=O)OCC)cc2)cc1 for me?
**A:** 0

**Q:** Can you look up the reported call for CC(C)(C)OC(=O)N(CCCCNCc1ccc2ccccc2c1)CCCNCc1ccc2ccccc2c1 for me?
**A:** 0

**Q:** Can you look up the reported call for O=[N+]([O-])c1cccc(-c2cn3c(n2)Cc2ccccc2C3)c1 for me?
**A:** 0

###

Item-by-item account of GI50
Tested on: RXF 393
assay comment: NCI tumour cell line growth inhibition, 48 h
Activity calls are given as the source filed them. No stated cut-off is given here; in the data, active = GI50 up to about 1.1 µM and inactive = higher.

Example entries and their recorded answers appear below.
chemical structure	measured target	GI50
O=C1ON=C2C3CC4CC12CC1(C3)C(=O)ON=C41	RXF 393	> 100 µM (inactive)
CCOC(=O)NNC(=O)NCc1cccc(CNC(=O)NNC(=O)OCC)c1	RXF 393	> 100 µM (inactive)
Oc1ccc2ccccc2c1/N=N/c1cc(Cl)ccc1Cl	RXF 393	27 µM (inactive)

# evaluate next
**Q:** Find the recorded GI50 belonging to O=c1oc2ccc(Cl)cc2cc1-c1cn2cc(Cl)ccc2n1 and report it.
**A:** > 100 µM (inactive)

###

System: HT-29
assay comment: NCI tumour cell line growth inhibition, 48 h
Active and inactive are the calls of the source. Rule as the data show it: active = GI50 up to about 1.1 µM and inactive = higher.
Item-by-item account of GI50

compound	measured target	outcome measure	result
NC(=O)c1csc(C2OC(CO)C(O)C2O)n1 (stereo unspecified)	HT-29	GI50	40.3 µM (inactive)
COc1ccc2nc3cccc([N+](=O)[O-])c3c(NCCO)c2c1	HT-29	GI50	0.00615 µM (active)
COC(=O)C12CC(c3ccccc31)C1C(=O)OC(=O)C12 (stereo unspecified)	HT-29	GI50	> 100 µM (inactive)
O=C1NN=C(c2c[nH]c3ccccc23)CC1NCc1ccccc1 (stereo unspecified)	HT-29	GI50	> 100 µM (inactive)
O=C1/C(=C/c2ccccc2)CN(C(=O)Oc2ccc(Cl)cc2)C/C1=C\c1ccccc1	HT-29	GI50	1.14 µM (inactive)

# evaluate next
**Q:** Which GI50 is reported with HT-29 for this entry: NC12c3c4cccc3Oc3cccc(c31)Oc1cccc(c12)O4 ?
**A:** > 50 µM (inactive)

###

Item-by-item account of GI50
Tested on: SF-268
assay comment: NCI tumour cell line growth inhibition, 48 h
Active and inactive are the calls of the source. Rule as the data show it: active = GI50 up to about 1.1 µM and inactive = higher.

Example entries and their recorded answers appear below.
compound	measured target	result
Cc1ccc(NC(=O)SCCC(=O)O)cc1NC(=O)SCCC(=O)O	SF-268	> 100 µM (inactive)
COc1ccc(-c2c(C#N)c(N)n(C3OCC(O)C(O)C3O)c(=S)c2C#N)cc1 (centres undefined)	SF-268	> 100 µM (inactive)
COc1ccc2c(c1)c1c(n2CCN2CCOCC2)-c2ccccc2CC1	SF-268	42.3 µM (inactive)
CSCC[C@@H](NC(=O)[C@H](CC(C)C)NC(=O)C(Cc1cnc[nH]1)NC(=O)CNC(=O)[C@@H](NC(=O)[C@H](C)NC(=O)[C@H](Cc1c[nH]c2ccccc12)NC(=O)[C@H](CCC(N)=O)NC(=O)[C@@H](N)CC(N)=O)C(C)C)C(N)=O (some centres undefined)	SF-268	> 100 µM (inactive)
O=C1c2ccccc2CC1C1(O)C(=O)Nc2c(Cl)cc(Cl)cc21 (centres undefined)	SF-268	61 µM (inactive)
C/N=C(\SC)N(C)c1nc(=[N+](C)C)ss1.[O-][Cl+3]([O-])([O-])[O-]	SF-268	> 100 µM (inactive)
COc1c2occc2c(N)c2ccc(=O)oc12	SF-268	> 100 µM (inactive)
O=C1/C(=C/c2ccccc2)CN(C(=O)Oc2ccc(Cl)cc2)C/C1=C\c1ccccc1	SF-268	2.99 µM (inactive)

**Q:** Find the recorded GI50 belonging to C[P+]1(c2ccccc2)CCCCC1 and report it.
**A:** > 100 µM (inactive)

**Q:** Find the recorded GI50 belonging to CC1(C)CC(=O)c2c(nc3ccc4ccccc4c3c2-c2ccc(NC(=O)CCCC(=O)Nc3ccc(-c4c5c(nc6ccc7ccccc7c46)CC(C)(C)CC5=O)cc3)cc2)C1 and report it.
**A:** > 100 µM (inactive)

**Q:** Find the recorded GI50 belonging to O=C(Nc1nc(C23CC4CC(CC(C4)C2)C3)cs1)c1cc2cc([N+](=O)[O-])ccc2oc1=O and report it.
**A:** 26.2 µM (inactive)

**Q:** Find the recorded GI50 belonging to C=C1CCc2occ(C)c2C2C1C1=C(CC(C)C1=O)C1OC12C (centres undefined) and report it.
**A:** > 100 µM (inactive)

**Q:** Find the recorded GI50 belonging to CC(=O)OC(OC(C)=O)c1c2ccccc2cc2ccccc12 and report it.
**A:** 18.4 µM (inactive)

**Q:** Find the recorded GI50 belonging to CC(C)(C)OC(=O)NC(Cc1ccc([N+](=O)[O-])cc1)C(=O)NC(CCCCNC(=O)OCc1ccccc1)C(=O)ON1C(=O)CCC1=O (centres undefined) and report it.
**A:** 44.2 µM (inactive)
